Biological target: human adenosine A1 receptor (Homo sapiens, UniProt P30542)
Sequence (P30542 1-326): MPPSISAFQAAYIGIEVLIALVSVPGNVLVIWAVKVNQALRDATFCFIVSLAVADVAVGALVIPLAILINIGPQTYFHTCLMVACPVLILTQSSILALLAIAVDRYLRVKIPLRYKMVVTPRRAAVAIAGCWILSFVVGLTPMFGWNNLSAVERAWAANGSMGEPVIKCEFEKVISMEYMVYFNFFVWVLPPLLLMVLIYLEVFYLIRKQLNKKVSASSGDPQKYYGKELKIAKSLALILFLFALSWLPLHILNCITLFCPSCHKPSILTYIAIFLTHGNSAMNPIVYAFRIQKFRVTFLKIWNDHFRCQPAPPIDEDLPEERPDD
Assay: Adenosine A1 Receptor Functional Assay (A1GAL2)
Settings: CHO-K1 cells, cAMP inducible beta-galactosidase reporter, 4nM r-PIA/1 uM Forskolin agonist challenge
Source text: To initiate the functional assay, cryopreserved CHO-K1 cells overexpressing the human adenosine A1 receptor and containing a cAMP inducible beta-galactosidase reporter gene were thawed, centrifuged, DMSO containing media removed, and then seeded with fresh culture media into clear 384-well tissue culture treated plates (BD #353961) at a concentration of 10K cells/well. […] Plates were counted at 405 nm on a SpectraMax Microplate Reader (Molecular Devices). […]
value_type: Ki (nM)
I only need the number, in nM, no unit after it.

Worked cases, answers included:
Cc1csc(-c2nc(N)c3cc(C(=O)N4CCOCC4)sc3n2)n1
851
Nc1nc(-c2ncco2)nc2sc(C(=O)NCc3ccccn3)cc12
422
CC(C)(C)N1CCN(C(=O)c2cc3c(N)nc(-c4cccc(C#N)c4)nc3s2)CC1
603
N#Cc1cccc(-c2nc(N)c3cc(C(=O)N4CCOCC4)sc3n2)c1
900

Now for the compound whose Ki we want.
Exam item: // map `Nc1nc(-c2nccs2)nc2sc(C(=O)N3CCOCC3)cc12` to recorded Ki (system: human adenosine A1 receptor (Homo sapiens, UniProt P30542))
Marked response: 1430
